tested on: Ruminococcus gnavus DSM 108212; experiment: fold change of Tryptamine concentration vs plate DMSO controls (fold change (ratio)); higher = more amine produced, active = hit call of the paper (significant change in both replicates, either direction); details: incubation time: 27 h, anaerobic, 37 °C
Structures can show the parent of a compound that is named as a salt.
experimental endpoint: fold change of Tryptamine concentration
Write the value as a bare number.

Illustrative cases are given below, each with its answer.
[[record]]
molecule = "C[C@]12C=CC(=O)C=C1CC[C@@H]1[C@@H]2[C@@H](O)C[C@@]2(C)[C@H]1CC[C@]2(O)C(=O)CO [Prednisolone] (20 µM)"
meas_value = 0.942

[[record]]
molecule = "Cc1cccc(CN2CCN(C(c3ccccc3)c3ccc(Cl)cc3)CC2)c1 (centres undefined) [Meclozine dihydrochloride] (20 µM)"
meas_value = 0.826

[[record]]
molecule = "Cc1ccc(Nc2c(F)cccc2Cl)c(CC(=O)O)c1 [Lumiracoxib] (20 µM)"
meas_value = 0.971


# context switch: different molecule, same fold change of Tryptamine concentration
Q: Which measured fold change of Tryptamine concentration value corresponds to CCCC(=O)Nc1ccc(OCC(O)CNC(C)C)c(C(C)=O)c1 (centres undefined) [Acebutolol hydrochloride] (20 µM) ?
Ans: 1.03

----------
tested on: Escherichia coli IAI1; test: growth (OD595) fold change vs plate DMSO controls (fold change (ratio)); higher = more growth; details: incubation time: 27 h, anaerobic, 37 °C
Where a name gives a salt, the structure may show the parent alone.
Listing: growth of selected compounds
Write the value as a bare number.

[[record]]
compound = "c1ccc(CN(CC2=NCCN2)c2ccccc2)cc1 [Antazoline hydrochloride] (20 µM)"
meas_value = 0.968

[[record]]
compound = "CO/N=C(\\C(=O)N[C@@H]1C(=O)N2C(C(=O)[O-])=C(C[n+]3cccc4c3CCC4)CS[C@H]12)c1csc(N)n1 [Cefpirome sulfate] (20 µM)"
meas_value = 0.00447

[[record]]
compound = "C=CC(N)CCC(=O)O (configuration not stated) [Vigabatrin hydrochloride] (20 µM)"
meas_value = 1.06

[[record]]
compound = "N=C(N)N/N=C/c1c(Cl)cccc1Cl [Guanabenz acetate] (20 µM)"
meas_value = 0.923

[[record]]
compound = "O=C1c2ccccc2S(=O)(=O)N1CCCCN1CCN(c2ncccn2)CC1 [Ipsapirone] (20 µM)"
meas_value = 0.977

[[record]]
compound = "COc1cc(N)c(Cl)cc1C(=O)NC1CCN(CCCOc2ccc(F)cc2)CC1OC (configuration not stated) [Cisapride] (20 µM)"
meas_value = 0.988

[[record]]
compound = "COCC1=C(C(=O)OC(C)OC(=O)OC(C)C)N2C(=O)[C@@H](NC(=O)/C(=N\\OC)c3csc(N)n3)[C@H]2SC1 (some centres not stated) [Cefpodoxime proxetil] (20 µM)"
meas_value = 1.01

[[record]]
compound = "O=C1C(=O)c2ccccc2C(O)=C1C1CCC(c2ccc(Cl)cc2)CC1 (configuration not stated) [Atovaquone] (20 µM)"
meas_value = 1.02


# context switch: different compound, same growth
Q: // lookup growth | system=Escherichia coli IAI1 | key= C[C@]12CCC3=C4CCC(=O)C=C4CC[C@H]3[C@@H]1CC[C@@]2(O)CC#N [Dienogest] (20 µM)
Ans: 0.536

----------
tested on: Ruminococcus gnavus DSM 108212; assay: fold change of 2-Phenylethylamine concentration vs plate DMSO controls (fold change (ratio)); higher = more amine produced, active = hit call of the paper (significant change in both replicates, either direction); conditions: incubation time: 27 h, anaerobic, 37 °C
Where a name gives a salt, the structure may show the parent alone.
experimental endpoint: fold change of 2-Phenylethylamine concentration
Write the value as a bare number.

[[record]]
compound = "CCCN(CCC)CCc1cccc2c1CC(=O)N2 [Ropinirole hydrochloride] (20 µM)"
meas_value = 1.02

[[record]]
compound = "Cn1nnnc1SCC1=C(C(=O)O)N2C(=O)[C@@H](NC(=O)[C@H](O)c3ccccc3)[C@H]2SC1 [Cefamandole sodium salt] (20 µM)"
meas_value = 0.118

[[record]]
compound = "CN(C)CCOc1ccc(/C(=C(/CCCl)c2ccccc2)c2ccccc2)cc1 [Toremifene] (20 µM)"
meas_value = 0.871


Q: Which measured fold change of 2-Phenylethylamine concentration value corresponds to Cc1nccn1CC1CCc2c(c3ccccc3n2C)C1=O (centres undefined) [Ondansetron hydrochloride] (20 µM) ?
Ans: 1.01

// data source = the supplement of paper PMC12494721
